Test system: RXF 393 renal
testName: NCI tumour cell line growth inhibition, 48 h
quantityName: TGI

Would you please look over these solved cases?
COC(=O)C12C3C=CC(O3)C1C1C=CC2O1 (centres undefined)    > 100 µM
CC(=O)Nc1ccccc1S(=O)(=O)c1c(-c2c(C)c(Cl)c(C)c(Cl)c2C)noc1C    > 100 µM
N/C(=N\N=C=C1C(=O)Nc2ccc(F)cc21)NO    > 100 µM
CC1=NN(c2ccccc2Cl)C2(C1)SCC(=O)N2c1nc2ccccc2s1 (centres undefined)    > 100 µM
C=CCSC1=N/C(=C\c2ccco2)C(=O)N1CC=C    65.7 µM
Cc1c(/C=N\NC(=S)N(C)CCN(C)C(=S)N/N=C\c2c(C)n(C)n(-c3ccccc3)c2=O)c(=O)n(-c2ccccc2)n1C    > 100 µM
CC1(C)CCC(CN2CCN(c3ccc(C(=O)NS(=O)(=O)c4ccc(NCC5CCOCC5)c([N+](=O)[O-])c4)c(Oc4cnc5[nH]ccc5c4)c3)CC2)=C(c2ccc(Cl)cc2)C1    3.48 µM
CC1(C)O[C@@H]([C@@H](O)[C@H](O)C2SCCCS2)[C@@H](CO)O1    > 100 µM

Now consider a different compound.
compound `ClCc1nc2cc(Cl)ccc2o1` , TGI observed: 29.8 µM

====

The entries below come with measured TGI values attached.
Tested on: EKVX NSCLC
testName: NCI tumour cell line growth inhibition, 48 h

CC(=O)N(CCc1ccccc1)C(C)(C#N)c1ccccc1 (configuration not stated)    > 100 µM

compound `CCCCCCCCCCCCCCCc1ccc(C(=O)C[n+]2ccccc2)cc1` , TGI observed: 8.72 µM

compound CC(=O)NC1C(OCc2ccccc2)OC(CO)C(O)C1OC(C)C(=O)NC(C(=O)NC(CCC(=O)Nc1ccc2c(c1)CN1C(=O)c3ccccc3C1=N2)C(N)=O)C(C)C (configuration not stated) , TGI observed: > 100 µM

====

Tested on: OVCAR-8 ovarian
testName: NCI tumour cell line growth inhibition, 48 h
The entries below come with measured TGI values attached.

Nc1cc2c3c(cccc3c1)C(=O)N(CCN1CCN(CCN3C(=O)c4cccc5cc(N)cc(c45)C3=O)CC1)C2=O    > 100 µM

Now consider a different compound.
compound `CCOC(=O)C1=C(O)CSC1=Nc1ccc(N=C2SCC(O)=C2C(=O)OCC)cc1` , TGI observed: > 100 µM

====

System: SF-295 CNS
testName: NCI tumour cell line growth inhibition, 48 h; in the data active means GI50 below about 0.43 µM; inactive means the rest
Outcome field: choose from true (1) (active), false (0) (inactive)

Below, 6 compounds whose answers are already recorded.
C=C(CNCCc1ccc(O)cc1)[C@@H]1CC[C@]2(CO)CC[C@]3(C)[C@H](CC[C@@H]4[C@@]5(C)CCC(NCCO)C(C)(C)[C@@H]5CC[C@]43C)[C@@H]12 (some centres not stated)    false (0)
COc1cc(-c2cn(-c3ccc(Cl)cc3)c(=O)n2-c2ccccc2)cc(OC)c1OC    false (0)
C/C(=N\NC(=S)Nc1ccccc1)c1ccccn1    true (1)
Oc1ccc(-c2nc(-c3ccc(F)cc3)c(-c3ccncc3)[nH]2)cc1    false (0)
CC1OC(OC2C(OC3CCC4(C)C(CCC5(C)C4CC=C4C6CC(C)(C)CCC6(CO)C(O)CC45C)C3(C)C)OC(C(=O)O)C(OC3OC(COC4OC(CO)C(O)C(O)C4O)C(O)C(O)C3O)C2O)C(O)C(O)C1O (configuration not stated)    false (0)
C#CCSc1nnnn1-c1ccc(Br)c(C)c1    false (0)

Please look at the following compound next.
Hi team, can someone confirm the assay call for `c1ccc(CNc2nc(Nc3ccc(-c4nc5ccccc5[nH]4)cc3)c3cn[nH]c3n2)cc1` ?
false (0)
